I'd appreciate it if you could supply TGI values for the items below.
System: SK-MEL-28 melanoma
Experiment: NCI tumour cell line growth inhibition, 48 h
Answer in µM, number only, no unit symbol.

Challenge: # input compound: CCOC(=O)C1C=C2O[C@@H]3OC4(CCCCC4)O[C@@H]3C2[C@H]2C(=O)C=CC(=O)[C@@]12C(=O)OC (stereo not given in full) ; wanted: its TGI
Response given: 30

Challenge: // lookup TGI for COc1ccc(-c2cc(-c3ccc(Nc4nc(Nc5ccc(Cl)cc5)nc(Nc5ccc(Cl)cc5)n4)cc3)nc(N)c2C#N)cc1
Response given: 1.22

Challenge: I would be grateful if you could share the reported TGI for COc1cc2cc(Oc3ccc(NC(=O)Nc4ccc(F)c(C(F)(F)F)c4)cc3)c(C)nc2cc1OCCN1CCCCC1 .
Response given: 3.04

Challenge: So what's the measured TGI for this one? CC(=O)OCCC1c2ccccc2-n2nc(-c3ccccc3)c(O)c21 (stereo not given)
Response given: 30.6

Challenge: Which measured TGI value corresponds to O=C(Cc1ccccc1)NN1C(=O)C(Cl)C1c1cccc(O)c1 (stereo not given) ?
Response given: 34.6

* * *

Tested on: UACC-62 melanoma
Experiment: NCI tumour cell line growth inhibition, 48 h; in the data active = GI50 below about 0.43 µM; inactive = the rest
Respond only with the outcome that fits, drawn from active, inactive

Challenge: Outcome logged for COc1cc(C2CC(c3cccc(Nc4ccncc4)c3)=NN2c2cc(Cl)cc(Cl)c2)cc(OC)c1OC (stereo unspecified) in this assay:
Response given: inactive

Challenge: I would be grateful if you could indicate the recorded call for CC1(C)CC(=O)C2=C(C1)NC(SSC1=C(C#N)C(c3ccccc3)C3=C(CC(C)(C)CC3=O)N1)=C(C#N)C2c1ccccc1 (stereo unspecified) .
Response given: inactive

Challenge: Fill in: this test's call for O=C(c1ccccc1)c1nn(-c2ccc(Cl)cc2)c2nc3nc(-c4ccccc4)cc(=O)n3nc12 is ___
Response given: inactive

Challenge: Test call for this compound, please: Nc1ccn(C=C=CCO)c(=O)n1
Response given: inactive

Challenge: Which outcome was assigned to CCCCCCCCCCCCCCCCCCNC(=O)[C@H]1CSC(c2ccc(OC)c(F)c2)N1 (stereo partly specified) in this test?
Response given: inactive

Challenge: What is the recorded call for this compound in the test? CC1(C)N=C(N)N=C(N)N1c1cccc(/C=C/C=C/c2cccc([N+](=O)[O-])c2)c1
Response given: inactive

Challenge: Could you check what this test reported for COc1ccc(/C(=C/c2cc(OC)c(OC)c(OC)c2)[N+](=O)[O-])cc1 ?
Response given: inactive

Challenge: Give the logged outcome of this assay for the following compound: O=C(CCCc1c[nH]c2ccccc12)NC1CC(=O)c2c(Br)sc(Br)c21 (stereo unspecified)
Response given: inactive

Challenge: Which result was noted for this compound in the test: O=[N+]([O-])c1ccc(Sc2ncccn2)c([N+](=O)[O-])c1
Response given: inactive

Challenge: Lab log entry: Cc1cc2c(C)c3cc(C)c(N)cc3nc2cc1N — outcome as called in the assay?
Response given: inactive

Challenge: Recorded test outcome, item O=C(Nc1n[nH]c2nc(-c3ccco3)c(Br)cc12)C1CC1
Response given: inactive

Challenge: Hello, I am checking results. What call was entered for O=C1c2cc3c(cc2-c2c1c1cc(Cl)c(Cl)cc1c(=O)n2CCCn1ccnc1)OCO3 ?
Response given: active

Challenge: What did the test return for COC(=O)[C@]12CC[C@@H](C)[C@H](C)[C@@H]1C1=CC[C@@H]3[C@@]4(C)CC(=O)[C@H](O)[C@@]5(C)COC(=C45)C[C@@]3(C)[C@]1(C)CC2 ?
Response given: inactive

Challenge: Query: recorded result category for Cn1cc(-c2ccc(=O)n(Cc3cccc(-c4ncc(OCCN5CCOCC5)cn4)c3)n2)cn1 in this test
Response given: inactive

Challenge: Query: recorded result category for COc1ccccc1C(=O)/C=C/c1cc2cccc(OC)c2[nH]c1=O in this test
Response given: active

Challenge: Give the logged outcome of this assay for the following compound: CCCCCCCCCCCCc1ccc(C(=O)/C=C/C(=O)O)cc1
Response given: inactive

Values were extracted from PubChem BioAssay (NCI).
